Provenance of the data: patent US9868766B2

Molecular target: human V1a receptor (Homo sapiens, UniProt P37288)
Sequence (P37288 whole entry): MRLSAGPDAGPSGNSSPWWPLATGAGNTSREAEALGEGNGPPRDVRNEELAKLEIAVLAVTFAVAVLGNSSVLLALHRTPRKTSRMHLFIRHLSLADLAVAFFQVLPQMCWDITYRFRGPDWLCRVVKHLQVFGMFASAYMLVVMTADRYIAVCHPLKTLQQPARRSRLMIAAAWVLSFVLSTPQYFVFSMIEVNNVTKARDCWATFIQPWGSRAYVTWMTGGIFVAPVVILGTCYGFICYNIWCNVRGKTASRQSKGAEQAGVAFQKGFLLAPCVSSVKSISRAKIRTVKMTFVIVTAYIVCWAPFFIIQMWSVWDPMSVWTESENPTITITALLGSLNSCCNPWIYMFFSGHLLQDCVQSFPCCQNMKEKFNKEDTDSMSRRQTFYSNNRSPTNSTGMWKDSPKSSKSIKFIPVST
Test: Calcium flux assay (FLIPR), agonist mode, CHO cells expressing human V1a
Details: CHO cells stably expressing human V1a; calcium flux; read-out: hV1a EC50
pEC50: −log10 of the molar value. Positions of bridges follow the written chain, without caps; N, C: chain ends. Non-standard residues stand in square brackets, D forms with d. Residues, ends and D or L forms follow the SMILES beside them. Phe(4-NH2) = Nc1ccc(C[C@H](N)C(=O)O)cc1; Cha = N[C@@H](CC1CCCCC1)C(=O)O; Tle = CC(C)(C)[C@H](N)C(=O)O; Sar = CNCC(=O)O
Each record here notes measured pEC50.

{"Molecule": "CC[C@H](C)[C@@H]1NC(=O)[C@H](Cc2ccc(O)cc2)NC(=O)CNC(=O)CC[C@@H](C(=O)N(C)CC(=O)N[C@@H](CC2CCCCC2)C(=O)NCC(N)=O)NC(=O)[C@H](CC(N)=O)NC(=O)[C@H](CCC(N)=O)NC1=O [Example 39] (GYIQNE[Sar][Cha]G-NH2; lactam N-6)", "pEC50": "< 4.57"}
{"Molecule": "CC[C@H](C)[C@@H]1NC(=O)[C@H](Cc2ccc(O)cc2)NC(=O)CNC(=O)CC[C@@H](C(=O)N(C)CC(=O)N[C@H](C(=O)NCC(N)=O)C(C)(C)C)NC(=O)[C@H](CC(N)=O)NC(=O)[C@H](CCC(N)=O)NC1=O [Example 44] (GYIQNE[Sar][Tle]G-NH2; lactam N-6)", "pEC50": "< 4.57"}
{"Molecule": "CC[C@H](C)[C@@H]1NC(=O)[C@H](Cc2ccc(O)cc2)NC(=O)CNC(=O)CC[C@@H](C(=O)N2CCC[C@H]2C(=O)N[C@@H](C)C(=O)NCC(N)=O)NC(=O)[C@H](CC(N)=O)NC(=O)[C@H](CCC(N)=O)NC1=O [Example 18] (GYIQNEPAG-NH2; lactam N-6)", "pEC50": "< 4.92"}
{"Molecule": "CC[C@H](C)[C@@H]1NC(=O)[C@H](Cc2ccc(O)cc2)NC(=O)CNC(=O)CC[C@@H](C(=O)NCC(=O)N[C@@H](CC(C)C)C(=O)NCC(N)=O)NC(=O)[C@H](CC(N)=O)NC(=O)[C@H](CCC(N)=O)NC1=O [Example 6] (GYIQNEGLG-NH2; lactam N-6)", "pEC50": "< 4.57"}
{"Molecule": "CC[C@H](C)[C@@H]1NC(=O)[C@H](Cc2ccc(O)cc2)NC(=O)CNC(=O)CC[C@@H](C(=O)N2CCC[C@H]2C(=O)N[C@@H](Cc2ccc(N)cc2)C(=O)NCC(N)=O)NC(=O)[C@H](CC(N)=O)NC(=O)[C@H](CCC(N)=O)NC1=O [Example 11] (GYIQNEP[Phe(4-NH2)]G-NH2; lactam N-6)", "pEC50": "< 4.57"}
{"Molecule": "CC[C@H](C)[C@@H]1NC(=O)[C@H](Cc2ccc(O)cc2)NC(=O)CNC(=O)CC[C@@H](C(=O)N(C)CC(=O)N[C@H](C(=O)NCC(N)=O)C(C)C)NC(=O)[C@H](CC(N)=O)NC(=O)[C@H](CCC(N)=O)NC1=O [Example 26] (GYIQNE[Sar]VG-NH2; lactam N-6)", "pEC50": "< 5.00"}
{"Molecule": "CC[C@H](C)[C@@H]1NC(=O)[C@H](Cc2ccc(O)cc2)NC(=O)CNC(=O)CC[C@@H](C(=O)N(C)CC(=O)N[C@@H](Cc2ccc(N)cc2)C(=O)NCC(N)=O)NC(=O)[C@H](CC(N)=O)NC(=O)[C@H](CCC(N)=O)NC1=O [Example 1] (GYIQNE[Sar][Phe(4-NH2)]G-NH2; lactam N-6)", "pEC50": "< 4.57"}

----------
Target: human Oxytocin (OTR) receptor (Homo sapiens, UniProt P30559)
Construct: expressed in transfected cells
Sequence (P30559 whole entry): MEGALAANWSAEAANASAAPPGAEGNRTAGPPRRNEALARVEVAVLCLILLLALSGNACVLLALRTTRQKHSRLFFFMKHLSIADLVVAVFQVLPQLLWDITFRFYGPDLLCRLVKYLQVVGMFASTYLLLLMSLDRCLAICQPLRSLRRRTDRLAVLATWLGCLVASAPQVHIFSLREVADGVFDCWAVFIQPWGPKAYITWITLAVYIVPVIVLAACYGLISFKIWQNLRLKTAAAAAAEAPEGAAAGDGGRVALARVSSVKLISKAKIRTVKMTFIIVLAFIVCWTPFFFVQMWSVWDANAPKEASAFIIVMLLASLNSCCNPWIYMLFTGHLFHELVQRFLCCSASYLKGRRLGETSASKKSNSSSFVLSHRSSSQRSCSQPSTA
Experiment: Calcium flux assay (FLIPR), agonist mode, CHO cells expressing human OTR
Assay type: cell-based
Details: CHO; maximum response normalized to endogenous full agonist = 100%; read-out: hOT efficacy (%)
Positions of bridges follow the written chain, without caps; N, C: chain ends. Non-standard residues stand in square brackets, D forms with d. Residues, ends and D or L forms follow the SMILES beside them. Gly(octyl) = CCCCCCCC[C@H](N)C(=O)O; Cha = N[C@@H](CC1CCCCC1)C(=O)O; Aoc(2) = CCCCCC[C@H](N)C(=O)O; Pip = O=C(O)[C@@H]1CCCCN1; Sar = CNCC(=O)O

{"Compound": "CC[C@H](C)[C@@H]1NC(=O)[C@H](Cc2ccc(O)cc2)NC(=O)CNC(=O)CC[C@@H](C(=O)N(C)CC(=O)N[C@@H](CCC(N)=O)C(=O)NCC(N)=O)NC(=O)[C@H](CC(N)=O)NC(=O)[C@H](CCC(N)=O)NC1=O [Example 31] (GYIQNE[Sar]QG-NH2; lactam N-6)", "Emax (%)": 131}
{"Compound": "CC[C@H](C)[C@@H]1NC(=O)[C@H](Cc2ccc(O)cc2)NC(=O)CNC(=O)CC[C@@H](C(=O)N(C)CC(=O)N[C@@H](Cc2ccc(O)cc2)C(=O)NCC(N)=O)NC(=O)[C@H](CC(N)=O)NC(=O)[C@H](CCC(N)=O)NC1=O [Example 32] (GYIQNE[Sar]YG-NH2; lactam N-6)", "Emax (%)": 119}
{"Compound": "CC[C@H](C)[C@@H]1NC(=O)[C@H](Cc2ccc(O)cc2)NC(=O)CNC(=O)CC[C@@H](C(=O)N(C)CC(=O)N[C@@H](CC2CCCCC2)C(=O)NCC(N)=O)NC(=O)[C@H](CC(N)=O)NC(=O)[C@H](CCC(N)=O)NC1=O [Example 39] (GYIQNE[Sar][Cha]G-NH2; lactam N-6)", "Emax (%)": 122}
{"Compound": "CCCCCC[C@H](NC(=O)CN(C)C(=O)[C@@H]1CCC(=O)NCC(=O)N[C@@H](Cc2ccc(O)cc2)C(=O)N[C@@H]([C@@H](C)CC)C(=O)N[C@@H](CCC(N)=O)C(=O)N[C@@H](CC(N)=O)C(=O)N1)C(=O)NCC(N)=O [Example 53] (GYIQNE[Sar][Aoc(2)]G-NH2; lactam N-6)", "Emax (%)": 127}
{"Compound": "CC[C@H](C)[C@@H]1NC(=O)[C@H](Cc2ccc(O)cc2)NC(=O)CNC(=O)CC[C@@H](C(=O)N(C)CC(=O)N[C@@H](CC(C)C)C(=O)NCC(N)=O)NC(=O)[C@H](CC(N)=O)NC(=O)[C@H](CO)NC1=O [Example 52] (GYISNE[Sar]LG-NH2; lactam N-6)", "Emax (%)": 121}
{"Compound": "CCCCCCCC[C@H](NC(=O)CN(C)C(=O)[C@@H]1CCC(=O)NCC(=O)N[C@@H](Cc2ccc(O)cc2)C(=O)N[C@@H]([C@@H](C)CC)C(=O)N[C@@H](CCC(N)=O)C(=O)N[C@@H](CC(N)=O)C(=O)N1)C(=O)NCC(N)=O [Example 54] (GYIQNE[Sar][Gly(octyl)]G-NH2; lactam N-6)", "Emax (%)": 134}
{"Compound": "CC[C@H](C)[C@@H]1NC(=O)[C@H](Cc2ccc(O)cc2)NC(=O)CNC(=O)CC[C@@H](C(=O)N(C)CC(=O)N[C@@H](CCSC)C(=O)NCC(N)=O)NC(=O)[C@H](CC(N)=O)NC(=O)[C@H](CCC(N)=O)NC1=O [Example 35] (GYIQNE[Sar]MG-NH2; lactam N-6)", "Emax (%)": 111}
{"Compound": "CC[C@H](C)[C@@H]1NC(=O)[C@H](Cc2ccc(O)cc2)NC(=O)CNC(=O)CC[C@@H](C(=O)N2CCCC[C@H]2C(=O)N[C@@H](CC(C)C)C(=O)NCC(N)=O)NC(=O)[C@H](CC(N)=O)NC(=O)[C@H](CCC(N)=O)NC1=O [Example 47] (GYIQNE[Pip]LG-NH2; lactam N-6)", "Emax (%)": 111}
{"Compound": "CC[C@H](C)[C@@H]1NC(=O)[C@H](Cc2ccc(O)cc2)NC(=O)CNC(=O)CC[C@@H](C(=O)N2CCC[C@H]2C(=O)N[C@H](C(=O)NCC(N)=O)C(C)C)NC(=O)[C@H](CC(N)=O)NC(=O)[C@H](CCC(N)=O)NC1=O [Example 19] (GYIQNEPVG-NH2; lactam N-6)", "Emax (%)": 122}
{"Compound": "CC[C@H](C)[C@@H]1NC(=O)[C@H](Cc2ccc(O)cc2)NC(=O)CNC(=O)CC[C@@H](C(=O)N(C)CC(=O)N[C@@H](CC(C)C)C(=O)NCC(N)=O)NC(=O)[C@H](CC(N)=O)NC(=O)[C@H](CCC(N)=O)NC1=O [Example 13] (GYIQNE[Sar]LG-NH2; lactam N-6)", "Emax (%)": 111}
